- Test system: Mus musculus
- ASSAY REMARKS: Compound was evaluated for the antimalarial activity against Plasmodium berghei in mice (Mus musculus) at the dose 40 (mg/kg) administered subcutaneously
- Format: functional
We begin with a simple list: items and their reported Delta MST.
Record the value in days, omitting the unit from your answer.

The examples below pair each entry with its known result.
COMPOUND: CCCCN(CCCC)CC(O)c1cc(/C=C/c2ccc(C(F)(F)F)cc2)cc(/C=C/c2ccc(C(F)(F)F)cc2)c1 (centres undefined)
TARGET OR SYSTEM: Mus musculus
Delta MST (days): 0.5
//
COMPOUND: CCCCN(CCCC)CC(O)c1cc(/C=C/c2ccc(C(F)(F)F)cc2)nc(/C=C/c2ccc(C(F)(F)F)cc2)c1 (centres undefined)
TARGET OR SYSTEM: Mus musculus
Delta MST (days): 2.9
//
COMPOUND: CCCCN(CCCC)CC(O)c1cc(-c2ccc(Cl)cc2)cc(-c2ccc(Cl)cc2)c1 (centres undefined)
TARGET OR SYSTEM: Mus musculus
Delta MST (days): 0.5

--- query ---
Ask: Delta MST lookup needed for CCCCNCC(O)c1cc(-c2ccc(Cl)cc2)cc(-c2ccc(Cl)cc2)c1 (centres undefined) , thanks.
Result: 1.3

Measured values drawn from ChEMBL document CHEMBL1121554 for this set.
